The values you see were collected from patent US20250129103A1.

Assay: Determination of logD (1-octanol / phosphate buffer pH 7.4)
Assay type: physicochemical
Settings: 1-octanol/phosphate buffer, pH 7.4, pH 7.4, 1-octanol/phosphate buffer; read-out: Log D, pH 7.4
Property measured: logD
Form rule: numeric answer, no unit written next to it.

N#CC[C@H]1CN(c2nc(OCC34CCCN3CCC4)nc3c2CCN(c2cccc4cccc(Cl)c24)C3)CCN1C(=O)/C=C/CN1CCSCC1 3.3
C[C@@H]1CN(C/C=C/C(=O)N2CCN(c3nc(OC[C@@]45CCCN4C[C@H](F)C5)nc4c(F)c(-c5cccc(Cl)c5C5CC5)ncc34)C[C@@H]2CC#N)C[C@H](C)O1 4.05

Inquiry: Can you look up the measured logD of Cc1noc(/C=C/C(=O)N2CCN(c3nc(OC[C@@]45CCCN4C[C@H](F)C5)nc4c(F)c(-c5cccc6cccc(Cl)c56)ncc34)C[C@@H]2CC#N)n1 for me?
Reply text: 3.54

Inquiry: Also check C#Cc1c(F)ccc2cccc(-c3ncc4c(N5CCN(C(=O)/C=C/CN6[C@@H]7CC[C@H]6COC7)[C@@H](CC#N)C5)nc(OC[C@@]56CCCN5C[C@H](F)C6)nc4c3F)c12
Reply text: 2.93

Inquiry: And the next one, CC(C)(C)c1noc(/C=C/C(=O)N2CCN(c3nc(OCC45CCCN4CCC5)nc4c(F)c(-c5cccc6cccc(Cl)c56)ncc34)C[C@@H]2CC#N)n1 ?
Reply text: 3.73

---

logD listing for selected molecules.
Assay: Determination of logD (1-octanol / phosphate buffer pH 7.4)
Format: physicochemical
Conditions: 1-octanol/phosphate buffer, pH 7.4, pH 7.4, 1-octanol/phosphate buffer; read-out: Log D, pH 7.4
Field format: numeric only.

Inquiry: What value of measured logD is listed for N#CC[C@H]1CN(c2nc(OC[C@@]34CCCN3C[C@H](F)C4)nc3c(F)c(-c4cccc5cccc(Cl)c45)ncc23)CCN1C(=O)/C=C/CN1C2COCC1C2 [Compound 189] ?
Reply text: 2.96

---

Experiment: Determination of logD (1-octanol / phosphate buffer pH 7.4)
Type: physicochemical
Conditions: 1-octanol/phosphate buffer, pH 7.4, pH 7.4, 1-octanol/phosphate buffer; read-out: Log D, pH 7.4
# key: entry, value: logD
Output: the number by itself.

// below: answered molecules
Cc1cc(N)nc([C@H]2Cc3nc(OC[C@@]45CCCN4C[C@H](F)C5)nc(N4CCN(C(=O)/C=C/CN(C)C)[C@@H](CC#N)C4)c3C[C@@H]2C)c1C(F)(F)F 2.71
Cc1nccc(/C=C/C(=O)N2CCN(c3nc(OC[C@@]45CCCN4C[C@H](F)C5)nc4c(F)c(-c5nc(N)cc6cccc(F)c56)ncc34)C[C@@H]2CC#N)n1 2.14

Inquiry: Which measured logD value corresponds to C[C@@H]1CN(C/C=C/C(=O)N2CCN(c3nc(OC[C@@]45CCCN4C[C@H](F)C5)nc4c(F)c(-c5cccc(Cl)c5C(F)(F)F)ncc34)C[C@@H]2CC#N)C[C@@H](C)O1 ?
Reply text: 3.68

Inquiry: Let us now turn to CCc1c(F)ccc2cccc(-c3ncc4c(N5CCN(C(=O)/C=C/CN6CC7CC(C6)O7)[C@@H](CC#N)C5)nc(OC[C@@]56CCCN5C[C@H](F)C6)nc4c3F)c12
Reply text: 3.38

Inquiry: // same read-out, input: N#CC[C@H]1CN(c2nc(OC[C@@]34CCCN3C[C@H](F)C4)nc3c(F)c(-c4cccc(Cl)c4C(F)F)ncc23)CCN1C(=O)/C=C/CN1[C@@H]2CC[C@H]1COC2
Reply text: 2.73

---

Target: KRAS G12C (GMPPNP-loaded) and cRAF (Ras-binding domain) interaction (Homo sapiens (Human), UniProt P01116, C118S/C51S/C80L/G12C)
Sequence (P01116 other isoform, or with tags, fused parts or gaps G12C/C51S/C80L/C118S): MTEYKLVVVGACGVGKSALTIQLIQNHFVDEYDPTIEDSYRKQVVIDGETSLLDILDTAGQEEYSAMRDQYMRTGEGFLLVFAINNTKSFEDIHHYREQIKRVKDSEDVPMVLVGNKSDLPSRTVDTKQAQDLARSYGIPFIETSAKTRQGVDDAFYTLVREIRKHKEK
Assay: Inhibition of KRAS G12C and cRAF binding (AlphaScreen)
Conditions: KRAS G12C loaded with GMPPNP, cRaf RBD, 2 hours preincubation; read-out: Raf-1 RBD K-Ras IC50
# IC50 annotations

# count of solved cases: 3
Compound	Reading
Cc1cc(N)nc(-c2ncc3c(N4CCN(C(=O)/C=C/c5nc(C(C)C)no5)[C@@H](CC#N)C4)nc(OC[C@@]45CCCN4C[C@H](F)C5)nc3c2F)c1C(F)(F)F	0.01 to 0.1 µM
Cn1cnc(/C=C/C(=O)N2CCN(c3nc(OCC45CCCN4CCC5)nc4c3CCN(c3cccc5cccc(Cl)c35)C4)C[C@@H]2CC#N)n1	> 0.5 µM
Cc1nccc(/C=C/C(=O)N2CCN(c3nc(OC[C@@]45CCCN4C[C@H](F)C5)nc4c(F)c(-c5cccc6ccccc56)ncc34)C[C@@H]2CC#N)n1 [Compound 215]	< 0.01 µM

Inquiry: For CC1(c2noc(/C=C/C(=O)N3CCN(c4nc(OC[C@@]56CCCN5C[C@H](F)C6)nc5c4CCN(c4cccc6cccc(Cl)c46)C5)C[C@@H]3CC#N)n2)CC1 , what is its reported IC50?
Reply text: 0.01 to 0.1 µM

Inquiry: What about CC(C)c1noc(/C=C/C(=O)N2CCN(c3nc(OCC45CCCN4CCC5)nc4c3CCN(c3ccccc3C(F)F)C4)C[C@@H]2CC#N)n1 ?
Reply text: > 0.5 µM

Inquiry: Could you do the same for N#CC[C@H]1CN(c2nc(OCC34CCCN3CCC4)nc3c2CCN(c2cccc4cccc(Cl)c24)C3)CCN1C(=O)/C=C/CN1CC(F)C1 , please?
Reply text: 0.01 to 0.1 µM

Inquiry: What do we get for CC(C)c1nccc(/C=C/C(=O)N2CCN(c3nc(OC[C@@]45CCCN4C[C@H](F)C5)nc4c(F)c(-c5cccc6cccc(Cl)c56)ncc34)C[C@@H]2CC#N)n1 ?
Reply text: < 0.01 µM

Inquiry: Follow-up item: N#CC[C@H]1CN(c2nc(OCC34CCCN3CCC4)nc3c2CCN(c2cccc4cccc(Cl)c24)C3)CCN1C(=O)/C=C/c1nc(C(F)(F)F)no1
Reply text: < 0.01 µM

---

Assay: Determination of kinetic solubility (pH 7.4)
Assay type: physicochemical
Conditions: phosphate buffer, pH 7.4, aqueous buffer, kinetic from dmso stock, 50 mM phosphate buffer pH 7.4, read-out: Ksol, pH 7.4
Property measured: solubility kinetic at 2 h

Guide cases for solubility kinetic at 2 h, answers given:
Compound	solubility kinetic at 2 h
CC(C)c1noc(/C=C/C(=O)N2CCN(c3nc(OCC45CCCN4CCC5)nc4c3CNC(c3cccc5cccc(Cl)c35)C4F)C[C@@H]2CC#N)n1 (some centres unmarked)	0.23 µg/mL
Cc1nsc(/C=C/C(=O)N2CCN(c3nc(OCC45CCCN4CCC5)nc4c3CCN(c3cccc5ccc(F)c(Cl)c35)C4)C[C@@H]2CC#N)n1	84 µg/mL
Cc1nsc(/C=C/C(=O)N2CCN(c3nc(OC[C@@]45CCCN4C[C@H](F)C5)nc4c(F)c(-c5cccc6cccc(Cl)c56)ncc34)C[C@@H]2CC#N)n1	0.01 µg/mL
CC(C)(C)c1noc(/C=C/C(=O)N2CCN(c3nc(OCC45CCCN4CCC5)nc4c3CCN(c3cccc5cccc(Cl)c35)C4)C[C@@H]2CC#N)n1	2.33 µg/mL
C[C@@H]1CN(C/C=C/C(=O)N2CCN(c3nc(OC[C@@]45CCCN4C[C@H](F)C5)nc4c(F)c(-c5cccc(Cl)c5C(F)(F)F)ncc34)C[C@@H]2CC#N)C[C@H](C)O1	128 µg/mL

Inquiry: Suppose we examine the compound N#CC[C@H]1CN(c2nc(OC[C@@]34CCCN3C[C@H](F)C4)nc3c(F)c(-c4cccc(Cl)c4C4CC4)ncc23)CCN1C(=O)/C=C/CN1C[C@H]2C[C@@H]1CO2 ; what solubility kinetic at 2 h value has been reported?
Reply text: 108 µg/mL

Inquiry: Now this one: C[C@H]1CN(C/C=C/C(=O)N2CCN(c3nc(OC[C@@]45CCCN4C[C@H](F)C5)nc4c(F)c(-c5cccc6cccc(Cl)c56)ncc34)C[C@@H]2CC#N)C[C@H](C)O1
Reply text: 79.1 µg/mL

Inquiry: Next compound up: Cc1nsc(/C=C/C(=O)N2CCN(c3nc(OCC45CCCN4CCC5)nc4c(F)c(-c5cccc6ccc(F)c(Cl)c56)ncc34)C[C@@H]2CC#N)n1
Reply text: 84.5 µg/mL

Inquiry: Same again, this time with CO[C@@H]1CCN(C/C=C/C(=O)N2CCN(c3nc(OC[C@@]45CCCN4C[C@H](F)C5)nc4c(F)c(-c5cccc6ccc(F)c(Cl)c56)ncc34)C[C@@H]2CC#N)C1
Reply text: 85.5 µg/mL

Inquiry: Same again, this time with Cc1c(F)ccc2cccc(-c3ncc4c(N5CCN(C(=O)/C=C/CN6CCOCC6)[C@@H](CC#N)C5)nc(OC[C@@]56CCCN5C[C@H](F)C6)nc4c3F)c12
Reply text: 69.5 µg/mL

Inquiry: Moving on to the next compound: N#CC[C@H]1CN(c2nc(OC[C@@]34CCCN3C[C@H](F)C4)nc3c(F)c(-c4cccc5cccc(Cl)c45)ncc23)CCN1C(=O)/C=C/CN1C[C@@H]2CC[C@H]1CO2
Reply text: 147 µg/mL
